- method-summary: PK and bioavailability after i.v., i.p. and s.c. administration in male SD rats
- experimental-setup: male, SD, rat, plasma, sc, 5 mg/kg, K10-HL (elimination half-life), s.c. 5 mg/kg, male SD rats
Ends that are not written are not given here.
endpoint-name: half-life (min)
Report only the number, with the unit min understood.

Which half-life is reported for this substance? PEGKGEQEHSQQKEEEEEMAV-NH2 [PSTi8]
25.2

----------
- method-summary: PK and bioavailability after i.v., i.p. and s.c. administration in male SD rats
- experimental-setup: male, SD, rat, plasma, iv, 5 mg/kg
Ends that are not written are not given here.
endpoint-name: MRT (min)
The reply should be a number in min, with the unit left off.

Name the recorded MRT for PEGKGEQEHSQQKEEEEEMAV-NH2 [PSTi8] .
21.6

Reference source for all entries: paper PMC8780964
